# System: troponin
# Assay Summary: Retention time in troponin high-performance liquid affinity chromatography (HPLAC) column, calcium dependent binding to troponin
# Measurement Conditions: mobile phase without calcium (EDTA); flow rate 1 ml/min
Each record here notes measured Retention time in troponin-HPLAC column, EDTA solution.
Value Type: Retention time in troponin-HPLAC column, EDTA solution (min)

[[record]]
compound = "CC1SC(=O)NN=C1c1ccc(NN=C(C#N)C#N)cc1 (stereo not shown)"
system_name = "troponin"
reported = 4.8

[[record]]
compound = "CC1NC(=O)NN=C1c1ccc(NN=C(C#N)C#N)cc1 (stereo not shown)"
system_name = "troponin"
reported = 1.2

[[record]]
compound = "CC(=O)C(=NNc1ccc(C2=NNC(=O)CC2)cc1)C(C)=O"
system_name = "troponin"
reported = 4.2

[[record]]
compound = "N#CC(C#N)=NNc1ccc(C2=NNC(=O)CC2)cc1"
system_name = "troponin"
reported = 2.2

